- Target system: UniProtKB Q9UHC9
- Sequence (Q9UHC9 22-1359): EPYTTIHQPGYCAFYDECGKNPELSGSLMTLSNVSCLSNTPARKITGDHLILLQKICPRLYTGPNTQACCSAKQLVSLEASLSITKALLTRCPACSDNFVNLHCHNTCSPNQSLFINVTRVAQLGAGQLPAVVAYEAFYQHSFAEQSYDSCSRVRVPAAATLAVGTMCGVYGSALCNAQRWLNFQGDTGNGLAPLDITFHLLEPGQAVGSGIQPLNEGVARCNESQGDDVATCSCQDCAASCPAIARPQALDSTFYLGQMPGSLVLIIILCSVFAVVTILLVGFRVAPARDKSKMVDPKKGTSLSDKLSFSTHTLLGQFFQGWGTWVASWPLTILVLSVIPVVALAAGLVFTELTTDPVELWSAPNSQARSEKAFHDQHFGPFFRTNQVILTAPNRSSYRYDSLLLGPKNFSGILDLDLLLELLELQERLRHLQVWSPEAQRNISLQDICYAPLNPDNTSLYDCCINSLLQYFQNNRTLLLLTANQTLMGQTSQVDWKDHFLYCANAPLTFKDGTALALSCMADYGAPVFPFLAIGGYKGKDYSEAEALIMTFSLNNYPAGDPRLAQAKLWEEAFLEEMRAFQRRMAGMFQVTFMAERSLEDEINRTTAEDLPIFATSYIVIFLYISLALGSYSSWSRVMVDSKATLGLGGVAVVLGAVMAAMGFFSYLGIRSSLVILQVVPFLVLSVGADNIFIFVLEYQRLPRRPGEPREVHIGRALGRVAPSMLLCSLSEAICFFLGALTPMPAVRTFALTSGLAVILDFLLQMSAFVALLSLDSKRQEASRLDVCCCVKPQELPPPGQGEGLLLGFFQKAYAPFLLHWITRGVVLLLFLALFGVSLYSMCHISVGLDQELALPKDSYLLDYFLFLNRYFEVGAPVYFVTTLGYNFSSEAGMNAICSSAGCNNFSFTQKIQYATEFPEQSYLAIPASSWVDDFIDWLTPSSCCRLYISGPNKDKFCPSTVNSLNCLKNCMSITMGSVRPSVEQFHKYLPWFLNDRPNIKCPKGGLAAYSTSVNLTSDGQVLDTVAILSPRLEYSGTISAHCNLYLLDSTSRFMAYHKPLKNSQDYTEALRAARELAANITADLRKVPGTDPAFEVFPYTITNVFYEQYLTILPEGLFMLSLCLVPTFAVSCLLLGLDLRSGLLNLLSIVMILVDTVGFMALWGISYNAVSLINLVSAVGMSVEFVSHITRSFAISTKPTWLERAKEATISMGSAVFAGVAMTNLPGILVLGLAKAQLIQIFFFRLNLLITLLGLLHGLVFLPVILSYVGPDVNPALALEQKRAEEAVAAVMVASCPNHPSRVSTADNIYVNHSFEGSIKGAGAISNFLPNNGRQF
pKi: −log10 of the molar value.
Property: pKi

Example molecules with recorded pKi:
{"columns": ["Molecule", "pKi"],
 "data": [
  ["O=C(Nc1c(Cl)cccc1Cl)N1CCC2(CC1)C(=O)N(c1ccccc1)C2c1ccccc1 (single isomer, unassigned) [drawing 667]", 4.75],
  ["O=C(NC1CCCCC1)N1CCC2(CC1)C(=O)N(c1ccccc1)C2c1ccccc1 (stereo not shown)", 4.71]
]}

[a] O=C(NCc1cccc(F)c1)N1CCC2(CC1)C(=O)N(c1ccccc1)C2c1ccccc1 (stereo not shown)
[b] O=C(Nc1c(Cl)cccc1Cl)N1CCC2(CC1)C(=O)N(c1ccccc1)C2c1ccccc1 (single isomer, unassigned) [drawing 666]
Hi, I'm comparing two records. Which one has the lower pKi, a or b ? Let me know the label of the one you choose.
a
(a: 4.59, b: 5.80)

These data points were gathered from patent US20080076751A1.
